- assay_overview: Evaluation of reductase activity on a synthetic peptide (fluorescence de-quenching)
- Assay type: biochemical
- cond: peptide 25 μM, 2.5 μM (FITC-Gly-Cys-Asp)ox, PBS, 40 minutes, 25° C., fluorescence 530 nm
Please enter 1 where Reductase activity (%) is greater than or equal to 20%, and -1 where it is lower.

In plain terms: is recorded Reductase activity (%) at least 20% for AAACPYCVRSLQPLALEGSLQKRG (proinsulin) [SEQ ID NO: 111, reference compound] ?
-1

Another substance: AAACHGCVRSLQPLALEGSLQKRG (proinsulin) [SEQ ID NO: 114, reference compound]
1

Another substance: AAACHPCVRSLQPLALEGSLQKRG (proinsulin) [SEQ ID NO: 112, reference compound]
1

Another substance: HAACPYCVRSLQPLALEGSLQKRG (proinsulin) [SEQ ID NO: 109]
-1

Another substance: AAHCHPCVRSLQPLALEGSLQKRG (proinsulin) [SEQ ID NO: 113]
1

Another substance: AHACPYCVRSLQPLALEGSLQKRG (proinsulin) [SEQ ID NO: 110]
-1

Another substance: H CPYCVRSLQPLALEGSLQKRG (HCPYCVRSLQPLALEGSLQKRG; proinsulin) [SEQ ID NO: 108]
1

Numbers sourced from patent US12023384B2.
